Cited source for all entries: the supplement of paper PMC7125110

What kcat was measured for each of the following?
B1: glmS ribozyme (parent)
chain: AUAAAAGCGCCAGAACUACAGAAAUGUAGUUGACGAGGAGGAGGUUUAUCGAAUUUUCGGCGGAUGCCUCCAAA

variants of: B1; assay: kcat; higher = faster cleavage; RNA array; details: with glucosamine-6-phosphate
Variants at the floor of the assay were thinned out.
State the answer as a number, implicitly in s⁻¹.

Query :: Fill in kcat for record AUAAAAGCGCCGGAACUACAGAAAUGUAGUUGACGAGGAGGAGGUUUAUCGAAUUUUAGGCGGAUGCCUCCAAA [A12G C58A]
Result :: 0.000476

Query :: Find the measured kcat of AUAAAAGCGCCGGAACUACAGAAAUGUAGUUGACGAGGAGGAGGUUUAUCGAAUUUUCGGCGGGUGCCUCCAAA [A12G A64G] and report it.
Result :: 0.000701

Query :: Could you please provide reported kcat for AUAAAAGCGCCAGAACUACAGAAAUGUAUUUGACGAGGAGGAGGUUUAUCGAAAUUUCGGCGGAAGCCUCCAAA [G29U U54A U65A] ? Thanks!
Result :: 0.000347

Query :: Give the value of kcat reported for the following: AUAAAAGCGCCCGAACUACAGAAAUGUAGUGGACGAGGAGGAGGUUUAUCGAAUUUUCGGCGGAUGCCUCCAAA [A12C U31G]
Result :: 0.00416

Query :: Consider the variant AUAAAAGCGCCAGAACUACAGAAAUGUAGUUGACGAGGAGGAGGUUUAUCGCAUUUUCGGCGGAUGCCACCAAA [A52C U69A] . State its measured kcat.
Result :: 1.76e-05

Query :: Specify measured kcat for AUAAAAGCGCCAGAACUACAGAAAUGUAGUUUACGAGGAGGAGGUUUAGCGAAUUUUCGGCGGAUGCCUCCAAA [G32U U49G] .
Result :: 5.32e-05

Query :: Output kcat of AUAAAAGCGCCAGAACUACAGAAAUGUAGUUGACGAGGAGGAGGUUUAUCGAAUUAUCGGCGGAUGCCUACAAA [U56A C70A]
Result :: 8.96e-05

Query :: Tell us which kcat value is on record for AUAAAAGCGCCAGAACUACAGAAAUGUAGUUGACGAGGUGGAGGUUUAUCGAUUUUUCGGCGGAUGCCUCCAAA [A39U A53U]
Result :: 0.0113

Query :: Look up kcat of AUAAAAGCGCCAGAAAUACAGAAAUGUAGUUGACGAGGAGAAGGUUUAUCGAAUUUUCGGCGGAUGCCUCCAAA [C16A G41A] and report it.
Result :: 4e-05

Query :: Output measured kcat for this item: AUAAAAGCGCCAGUACUACAGAAAUGUAGUUGACGAGGAGGAGGUUUAUCGAAUUUUCGGCAGAUGCCUGCAAA [A14U G62A C70G]
Result :: 5.52e-05

Query :: Entry AUAAAAGCGCCAGAACUACAGAAAUGUAGUAGACGAGGAGGAGGUUUAUCGAAUUUUCGGCGGAUUCCUCCAAA [U31A G66U] needs its kcat filled in; supply it.
Result :: 0.000713
